Sourced from paper PMC12648443

Each entry below carries its recorded Log Pe.
- assay_summary: Parallel artificial membrane permeability assay - blood brain barrier (PAMPA-BBB)
- experimental_context: PAMPA-BBB; High permeability LogPe > −5.33, No permeability LogPe < −6.14

>>> print(df.to_string())
                                   compound  measurement_label  measured
0  CC1=NN(c2ccccc2)C(=O)C1 [Edaravone, edaravone, reference compound]             Log Pe     −4.76
1  O=C1CC(=O)CC(C(O)Cc2cc(C(F)(F)F)cc(C(F)(F)F)c2)C1 (centres unmarked) [Compound 4]             Log Pe     −6.61
2  O=C1CC(=O)CC(/C=C/c2cc(C(F)(F)F)cc(C(F)(F)F)c2)C1 [Compound 6]             Log Pe     −5.07

Which Log Pe is listed for O=C1CC(=O)CC(C2(Oc3cc(C(F)(F)F)cc(C(F)(F)F)c3)CCC2)C1 [Compound 21] ? −4.77

Given CC(C)(Oc1cc(C(F)(F)F)cc(C(F)(F)F)c1)C1CC(=O)CC(=O)C1 [Compound 20] , state its recorded Log Pe. −4.94

====

Below, each of the molecules is paired with its reported microsomal CLint at 1.1 μM value.
- assay_summary: Microsomal metabolic stability, mouse
- Format: in vitro ADME
- experimental_context: liver microsomes, pH 7.4, 0.5 mg/mL
Could you give me the number in µL/min/mg? Just the number is fine.

>>> df
                                     smiles  measured
0  O=C1CC(=O)CC(/C=C/c2cc(C(F)(F)F)cc(C(F)(F)F)c2)C1      67.3

Which microsomal CLint at 1.1 μM value is on record for CC(C)(Oc1cc(C(F)(F)F)cc(C(F)(F)F)c1)C1CC(=O)CC(=O)C1 ? 35.7

====

- assay_summary: In vitro cytotoxicity, CellTiter-Glo, HepG2
- Format: cell-based
- experimental_context: human, HepG2 cells; 30 μM, 48 h, relative to untreated cells; read-out: Percentage of viable cells observed at 30 μM treatment, HepG2
measurement_label: viability at 48 h, 30 μM
Please append the unit to your numeric answer.

                                     smiles  measured
0  CC(C)(Oc1cc(C(F)(F)F)cc(C(F)(F)F)c1)C1CC(=O)CC(=O)C1     92.3%

Which viability at 48 h, 30 μM is listed for C[C@H](Oc1cc(C(F)(F)F)cc(C(F)(F)F)c1)C1CC(=O)CC(=O)C1 ? 96.3%

What measured viability at 48 h, 30 μM goes with O=C1CC(=O)CC(/C=C/c2cc(C(F)(F)F)cc(C(F)(F)F)c2)C1 ? 94%

====

- assay_summary: In vitro cytotoxicity, CellTiter-Glo, HEK293
- Type: cell-based
- experimental_context: human, HEK293 cells; 30 μM, 24 h, relative to untreated cells; read-out: Percentage of viable cells observed at 30 μM treatment, HEK293
measurement_label: viability at 24 h, 30 μM (%)
Write the answer as a number in %, unit excluded.

Returns the measured viability at 24 h, 30 μM for the input compound. Input: C[C@H](Oc1cc(C(F)(F)F)cc(C(F)(F)F)c1)C1CC(=O)CC(=O)C1 85.7

Which viability at 24 h, 30 μM is reported for this compound? CC(C)(Oc1cc(C(F)(F)F)cc(C(F)(F)F)c1)C1CC(=O)CC(=O)C1 90

Given the entry O=C1CC(=O)CC(/C=C/c2cc(C(F)(F)F)cc(C(F)(F)F)c2)C1 , report its measured viability at 24 h, 30 μM. 82.6
